For each entry below, report its pIC50 value.
Biological target: PIM-1 (Homo sapiens (Human))
Sequence (P11309 whole entry): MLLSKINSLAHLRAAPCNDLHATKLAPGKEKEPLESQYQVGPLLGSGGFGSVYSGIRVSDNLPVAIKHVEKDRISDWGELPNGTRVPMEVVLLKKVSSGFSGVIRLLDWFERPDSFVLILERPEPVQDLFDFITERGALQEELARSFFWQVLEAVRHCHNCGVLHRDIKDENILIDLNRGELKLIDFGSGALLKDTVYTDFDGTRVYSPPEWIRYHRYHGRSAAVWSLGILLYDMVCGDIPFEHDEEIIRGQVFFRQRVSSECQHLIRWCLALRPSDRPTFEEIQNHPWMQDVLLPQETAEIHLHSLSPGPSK
Experiment: PIM-1 biochemical assay (ADP Hunter)
Conditions: read-out: PIM1 IC50; semi-quantitative
pIC50: −log10 of the molar value.

Record excerpt, results attached:
# pIC50 lookup, item `CN1CCOc2c(N3CCC(CN)CC3)nn3c(-c4cccc(OC(F)(F)F)c4)nnc3c21` > 7.00

And the next one, CC1CN(C)c2c(NCC3CCN(C)CC3)nn3c(-c4cccc(OC(F)(F)F)c4)nnc3c2O1 (stereo not drawn) ? > 7.00

Others:
GET /values?readout=pIC50&item= `CN1CCOc2c1c(N[C@H]1CC[C@@H](N)CC1)nn1c(-c3cccc(OC(F)(F)F)c3)nnc21` > 7.00

This collection of values is drawn from patent US9682991B2.
